# target: BtsuOBP83a
# assayText: Fluorescence competitive binding assay (1-NPN probe), recombinant BtsuOBP83a
# Set-up: species or system Bactrocera tsuneonis
# reportedConditions: relative dissociation constant calculated from IC50; competition with 1-NPN; ligand 4–32 μmol/L; pH 7.4; read-out: Ki (μM) OBP83a
readoutType: Ki

Qu. Query (compound): CCCCC(=O)OCC [Ethyl valerate] ; field requested: Ki
Ans. > 50 µM

Qu. Query (compound): COc1cc(C)ccc1C(C)C [2-Isopropyl-5-methylanisole] ; field requested: Ki
Ans. > 50 µM

Qu. Query (compound): CCCCC/C=C/C(=O)OCC [Ethyl trans-2-octenoate] ; field requested: Ki
Ans. 46.3 µM

Qu. Query (compound): C=C1CC/C=C(\C)CC[C@@H]2[C@@H]1CC2(C)C [beta-Caryophyllene] ; field requested: Ki
Ans. > 50 µM

Qu. Query (compound): CCC/C=C/COC(=O)CCC [trans-2-Hexenyl Butyrate] ; field requested: Ki
Ans. > 50 µM

Qu. Query (compound): CCCCCC=O [Hexanal] ; field requested: Ki
Ans. 40.7 µM

Qu. Query (compound): CC1=CCCC(C)(C)C12CCC(C)O2 (stereo not shown) [Theaspirane] ; field requested: Ki
Ans. > 50 µM

Qu. Query (compound): CC/C=C\CCOC(=O)CC [cis-3-Hexenyl propionate] ; field requested: Ki
Ans. > 50 µM

Qu. Query (compound): CC1=CC[C@@H](C(C)(C)O)CC1 [(L)-alpha-terpineol] ; field requested: Ki
Ans. > 50 µM

Qu. Query (compound): C=Cc1ccccc1 [Styrene] ; field requested: Ki
Ans. > 50 µM

Qu. Query (compound): CCCCCCO [1-Hexanol] ; field requested: Ki
Ans. > 50 µM

Qu. Query (compound): CC1=CCC2CC1C2(C)C (stereo not drawn) [alpha-Pinene] ; field requested: Ki
Ans. 49.2 µM

Qu. Query (compound): CC(=O)OC/C=C(/C)CCC=C(C)C [Neryl acetate] ; field requested: Ki
Ans. > 50 µM

Qu. Query (compound): CCCCCC(=O)OCCC [Propyl Hexanoate] ; field requested: Ki
Ans. > 50 µM

Qu. Query (compound): CC1=CC(=O)C(C(C)C)CC1 (stereo not shown) [Piperitone] ; field requested: Ki
Ans. 17.9 µM

Qu. Query (compound): CCCCCCCCO [1-Octanol] ; field requested: Ki
Ans. 36.4 µM

Qu. Query (compound): CCCCOC(=O)C(C)CC (stereo not shown) [Butyl 2-methylbutyrate] ; field requested: Ki
Ans. > 50 µM

Qu. Query (compound): CCCCCCCCCCCCF [1-Fluorododecane] ; field requested: Ki
Ans. > 50 µM

Qu. Query (compound): CCc1ccccc1 [Ethylbenzene] ; field requested: Ki
Ans. > 50 µM

Qu. Query (compound): CC/C=C\CCO [cis-3-Hexen-1-ol] ; field requested: Ki
Ans. 32.1 µM

Qu. Query (compound): C=CC(C)(O)CC/C=C(\C)CCC=C(C)C (stereo not drawn) [trans-Nerolidol] ; field requested: Ki
Ans. 9.36 µM

Qu. Query (compound): CCOC(=O)C(C)CC (stereo not shown) [Ethyl 2-methylbutyrate] ; field requested: Ki
Ans. > 50 µM

Qu. Query (compound): CC(=O)OCCC(C)C [Isoamyl acetate] ; field requested: Ki
Ans. > 50 µM

Qu. Query (compound): CC(C)CCO [Isopentyl alcohol] ; field requested: Ki
Ans. > 50 µM

Qu. Query (compound): CC1=CCCC1 [1-Methylcyclopentene] ; field requested: Ki
Ans. > 50 µM

Qu. Query (compound): CCCCOC(=O)CCC [Butyl butyrate] ; field requested: Ki
Ans. > 50 µM

Qu. Query (compound): Cc1ccc(C(C)C)cc1O [Carvacrol] ; field requested: Ki
Ans. > 50 µM

Qu. Query (compound): CCCCCC(=O)OCC [Ethyl hexanoate] ; field requested: Ki
Ans. > 50 µM

Qu. Query (compound): C#Cc1cccc(N)c1 [3-Ethynylaniline] ; field requested: Ki
Ans. > 50 µM

Qu. Query (compound): CCCCOC(=O)CC [Butyl propionate] ; field requested: Ki
Ans. > 50 µM

Qu. Query (compound): CCCC(=O)OCCC(C)C [Isoamyl butyrate] ; field requested: Ki
Ans. > 50 µM

Qu. Query (compound): C=C1CC/C=C(/C)CC[C@@H]2[C@@H]1CC2(C)C [Isocaryophyllene] ; field requested: Ki
Ans. > 50 µM

Qu. Query (compound): CCCCCCCCOC(C)=O [Octyl acetate] ; field requested: Ki
Ans. > 50 µM

Qu. Query (compound): CC1=C[C@@H]2C(=C(C)CC[C@H]2C(C)C)CC1 [(+)-delta-Cadinene] ; field requested: Ki
Ans. > 50 µM

Qu. Query (compound): CCCC=CC=O [2-Hexenal] ; field requested: Ki
Ans. 42.7 µM

Qu. Query (compound): C/C=C/C(=O)OCC [Ethyl crotonate] ; field requested: Ki
Ans. > 50 µM

Qu. Query (compound): CC(C)c1ccccc1 [Cumene] ; field requested: Ki
Ans. > 50 µM

Qu. Query (compound): CCOC(C)=O [Ethylacetate] ; field requested: Ki
Ans. > 50 µM

Qu. Query (compound): CCC/C=C/COC(=O)CC [trans-2-Hexenyl propionate] ; field requested: Ki
Ans. > 50 µM

Qu. Query (compound): C=C(C)[C@H]1CC=C(C)C(=O)C1 [d-Carvone] ; field requested: Ki
Ans. > 50 µM

Qu. Query (compound): CC(C)=CCC/C(C)=C\CO [Nerol] ; field requested: Ki
Ans. > 50 µM

Qu. Query (compound): CCc1ccco1 [2-Ethylfuran] ; field requested: Ki
Ans. > 50 µM

Qu. Query (compound): CCCCCCCC(=O)OCCCC [Butyl caprylate] ; field requested: Ki
Ans. > 50 µM
